Method Description: HTChem stab assay (chemical stability in buffer pH2, pH4 and pH7 vs DMSO reference)
Format: physicochemical
Protocol Conditions: 72 h, 50 µM
Value Kind: Chemical stability data, Vehicle DMSO (%)
Give the value, in units of %, as a plain number.

Give the reported value of Chemical stability data, Vehicle DMSO for this record: CCc1nc2nc(C)ccn2c1C(=O)NCc1ccc(-c2nc3n(n2)CCC(C(F)(F)F)C3)cc1 (single isomer, unassigned) [Compound 5a]
100

Give the reported value of Chemical stability data, Vehicle DMSO for this record: CCCC1CCn2nc(-c3ccc(CNC(=O)c4c(CC)nc5ncc(C)cn45)cc3)nc2C1 (stereo not shown) [Compound 28ab]
100

Give the reported value of Chemical stability data, Vehicle DMSO for this record: CCc1nc2ncc(C)cn2c1C(=O)NCc1ccc(-c2nc3n(n2)CCCC3)c(F)c1 [Compound 32ab]
100

Give the reported value of Chemical stability data, Vehicle DMSO for this record: CCc1nc2nc(C)ccn2c1C(=O)NCc1ccc(-c2cn3c(n2)CC(C(F)(F)F)CC3)cc1 (stereo not shown) [Compound 34ab]
94

Give the reported value of Chemical stability data, Vehicle DMSO for this record: CCc1nc2ncc(C)cn2c1C(=O)NCc1ccc(-c2nn3c(c2C)CC(C(F)(F)F)CC3)cc1 (stereo not shown) [Compound 21ab]
100

Give the reported value of Chemical stability data, Vehicle DMSO for this record: CCc1nc2ncc(C)cn2c1C(=O)NCc1ccc(-c2nc3n(c2C)CCC(C(F)(F)F)C3)cc1 (stereo not shown) [Compound 19ab]
98

Give the reported value of Chemical stability data, Vehicle DMSO for this record: CCc1nc2ncc(C)cn2c1C(=O)NCc1ccc(-c2nc3n(n2)CCC(OCCOC)C3)cc1 (stereo not shown) [Compound 30ab]
98
